test system: Cyp1b1 mRNA; experiment: Cyp1b1 gene expression in liver (real-time PCR); format: in vivo, female C57BL/6 mice; conditions: female, C57BL/6, mouse, in vivo; single oral dose, day 3; read-out: Maximum induction of hepatic Cyp1b1 mRNA, of the maximal response of TCDD
Experimental Readout: Emax

query: Value lookup for Emax; key = Clc1ccc(-c2cc(Cl)c(Cl)cc2Cl)cc1Cl
result: < 0.3%

====

I'd be grateful if you could share measured Dose with significant increase in liver weight vs vehicle controls for these entries.
assay: Body and organ weight, hepatic lipid content; type: in vivo, female C57BL/6 mice; settings: single oral dose, day 3

Compound	Reported Value
Clc1ccc(-c2cc(Cl)c(Cl)c(Cl)c2)cc1Cl [PCB-126, 3,3´,4,4´,5-pentachlorobiphenyl]	≥ 1,000 µg/kg BW
Clc1cc2c(cc1Cl)Oc1c(cc(Cl)c(Cl)c1Cl)O2 [PeCDD, 1,2,3,7,8-pentachlorodibenzodioxin]	≥ 100 µg/kg BW
Clc1cc2c(cc1Cl)Oc1cc(Cl)c(Cl)cc1O2 [TCDD, 2,3,7,8-tetrachlorodibenzodioxin, reference compound]	≥ 10 µg/kg BW
Clc1ccc(-c2cc(Cl)c(Cl)cc2Cl)cc1Cl [PCB-118, 2,3´,4,4´,5-pentachlorobiphenyl]	≥ 150,000 µg/kg BW
Clc1cc2oc3c(Cl)c(Cl)c(Cl)cc3c2cc1Cl [Congener 4-PeCDF, 2,3,4,7,8-pentachlorodibenzofuran]	≥ 100 µg/kg BW
Clc1cc(Cl)c(-c2cc(Cl)c(Cl)cc2Cl)cc1Cl [PCB-153, 2,2´,4,4´,5,5´-hexachlorobiphenyl]	≥ 500,000 µg/kg BW

Now for another entry.
query: Value lookup for Dose with significant increase in liver weight vs vehicle controls; key = Clc1ccc(-c2cc(Cl)c(Cl)c(Cl)c2Cl)cc1Cl [PCB-156, 2,3,3´,4,4´,5-hexachlorobiphenyl]
result: ≥ 50,000 µg/kg BW

====

test: Body and organ weight, hepatic lipid content; type: in vivo, female C57BL/6 mice; conditions: oral dose 25 µg/kg bw; day 3
I'd be grateful if you could share measured Liver weight for these entries.

Below, each entry is followed by its recorded Liver weight result.
Molecule	Liver weight
Clc1cc2c(cc1Cl)Oc1cc(Cl)c(Cl)cc1O2 [TCDD, 2,3,7,8-tetrachlorodibenzodioxin, reference compound]	5.86 ± 0.22 % of bw
Clc1ccc(-c2cc(Cl)c(Cl)c(Cl)c2)cc1Cl	4.96 ± 0.35 % of bw
Clc1cc2oc3c(Cl)c(Cl)c(Cl)cc3c2cc1Cl	5.32 ± 0.19 % of bw

Now for another entry.
query: Value lookup for Liver weight; key = Clc1cc2c(cc1Cl)Oc1c(cc(Cl)c(Cl)c1Cl)O2
result: 5.26 ± 0.27 % of bw

====

experiment: Body and organ weight, hepatic lipid content; type: in vivo, female C57BL/6 mice; conditions: oral dose 100 µg/kg bw; day 3
I'd be grateful if you could share measured Body weight for these entries.
Give bare numbers, in gram.

Below, each entry is followed by its recorded Body weight result.
Molecule	Experimental Readout	Value Units	Reported Value
Clc1cc2c(cc1Cl)Oc1c(cc(Cl)c(Cl)c1Cl)O2	Body weight	gram	18.8
Clc1cc2c(cc1Cl)Oc1cc(Cl)c(Cl)cc1O2 [TCDD, 2,3,7,8-tetrachlorodibenzodioxin, reference compound]	Body weight	gram	19.4
Clc1ccc(-c2cc(Cl)c(Cl)c(Cl)c2)cc1Cl	Body weight	gram	19.5

Now for another entry.
query: Value lookup for Body weight; key = Clc1cc2oc3c(Cl)c(Cl)c(Cl)cc3c2cc1Cl
result: 19.2

====

tested on: hepatic CYP1A1 activity (ethoxyresorufin-O-deethylase, EROD); experiment: Hepatic EROD activity in hepatic microsomal fractions after single oral dose; format: in vivo, female C57BL/6 mice; conditions: dose metric Syst plasma; 3 days after single oral dose
I'd be grateful if you could share measured BMR20TCDD Liver EROD activity for these entries.
One number for each entry, in ng/g lipid.

Molecule	Experimental Readout	Reported Value
Clc1cc2c(cc1Cl)Oc1cc(Cl)c(Cl)cc1O2 [TCDD, 2,3,7,8-tetrachlorodibenzodioxin, reference compound]	BMR20TCDD Liver EROD activity	1.38
Clc1cc2c(cc1Cl)Oc1c(cc(Cl)c(Cl)c1Cl)O2 [PeCDD, 1,2,3,7,8-pentachlorodibenzodioxin]	BMR20TCDD Liver EROD activity	2.31

query: Value lookup for BMR20TCDD Liver EROD activity; key = Clc1ccc(-c2cc(Cl)c(Cl)c(Cl)c2)cc1Cl [PCB-126, 3,3´,4,4´,5-pentachlorobiphenyl]
result: 72.3

====

I'd be grateful if you could share measured BMR20TCDD PBLs Cyp1a1 mRNA for these entries.
tested on: Cyp1a1 mRNA in PBLs; assay: Cyp1a1 gene expression in peripheral blood lymphocytes; assay type: in vivo, female C57BL/6 mice; conditions: dose metric Adm dose; 3 days after single oral dose
Answers are plain numbers, in µg/kg BW.

Consider the following items and state reported BMR20TCDD PBLs Cyp1a1 mRNA for each.
1. Clc1cc2c(cc1Cl)Oc1c(cc(Cl)c(Cl)c1Cl)O2
2. Clc1ccc(-c2cc(Cl)c(Cl)c(Cl)c2)cc1Cl
3. Clc1cc2c(cc1Cl)Oc1cc(Cl)c(Cl)cc1O2 [TCDD, 2,3,7,8-tetrachlorodibenzodioxin, reference compound]

result:
1. 33.7
2. 603
3. 22.4

====

I'd be grateful if you could share measured REP Liver Cyp1a2 mRNA for these entries.
system: Cyp1a2 mRNA in liver; assay: Cyp1a2 gene expression in liver (real-time PCR); format: in vivo, female C57BL/6 mice; settings: relative to TCDD; dose metric Syst plasma (ng/g lipid)

Below, each entry is followed by its recorded REP Liver Cyp1a2 mRNA result.
Compound	Experimental Readout	Reported Value
Clc1ccc(-c2cc(Cl)c(Cl)cc2Cl)cc1Cl	REP Liver Cyp1a2 mRNA	0.00002
Clc1ccc(-c2cc(Cl)c(Cl)c(Cl)c2Cl)cc1Cl	REP Liver Cyp1a2 mRNA	0.00003
Clc1cc2c(cc1Cl)Oc1cc(Cl)c(Cl)cc1O2 [TCDD, 2,3,7,8-tetrachlorodibenzodioxin, reference compound]	REP Liver Cyp1a2 mRNA	1
Clc1cc2oc3c(Cl)c(Cl)c(Cl)cc3c2cc1Cl	REP Liver Cyp1a2 mRNA	0.2
Clc1ccc(-c2cc(Cl)c(Cl)c(Cl)c2)cc1Cl	REP Liver Cyp1a2 mRNA	0.01

query: Entry Clc1cc2c(cc1Cl)Oc1c(cc(Cl)c(Cl)c1Cl)O2 , system Cyp1a2 mRNA in liver: what REP Liver Cyp1a2 mRNA was measured?
result: 0.8

====

I'd be grateful if you could share measured BMR20TCDD Liver Cyp1b1 mRNA for these entries.
test system: Cyp1b1 mRNA in liver; assay: Cyp1b1 gene expression in liver (real-time PCR); type: in vivo, female C57BL/6 mice; details: dose metric Adm dose; 3 days after single oral dose
Numbers only, in µg/kg BW.

Compound	BMR20TCDD Liver Cyp1b1 mRNA, µg/kg BW
Clc1cc2c(cc1Cl)Oc1c(cc(Cl)c(Cl)c1Cl)O2 [PeCDD, 1,2,3,7,8-pentachlorodibenzodioxin]	10.1

Consider the following items and state reported BMR20TCDD Liver Cyp1b1 mRNA for each.
1. Clc1cc2oc3c(Cl)c(Cl)c(Cl)cc3c2cc1Cl [Congener 4-PeCDF, 2,3,4,7,8-pentachlorodibenzofuran]
2. Clc1cc2c(cc1Cl)Oc1cc(Cl)c(Cl)cc1O2 [TCDD, 2,3,7,8-tetrachlorodibenzodioxin, reference compound]

result:
150
3.55

====

tested on: Cyp1b1 mRNA in PBLs; experiment: Cyp1b1 gene expression in peripheral blood lymphocytes; type: in vivo, female C57BL/6 mice; settings: single oral dose, day 3
Experimental Readout: Effect on Cyp1b1 mRNA in PBLs

Compound	Effect on Cyp1b1 mRNA in PBLs
Clc1cc(Cl)c(-c2cc(Cl)c(Cl)cc2Cl)cc1Cl	did not induce
Clc1cc2c(cc1Cl)Oc1c(cc(Cl)c(Cl)c1Cl)O2	dose-dependently induced
Clc1ccc(-c2cc(Cl)c(Cl)c(Cl)c2Cl)cc1Cl	did not induce
Clc1cc2oc3c(Cl)c(Cl)c(Cl)cc3c2cc1Cl	dose-dependently induced
Clc1ccc(-c2cc(Cl)c(Cl)cc2Cl)cc1Cl	did not induce

Now for another entry.
query: Value lookup for Effect on Cyp1b1 mRNA in PBLs; key = Clc1cc2c(cc1Cl)Oc1cc(Cl)c(Cl)cc1O2 [TCDD, 2,3,7,8-tetrachlorodibenzodioxin, reference compound]
result: dose-dependently induced

====

I'd be grateful if you could share measured REP Liver Cyp1a1 mRNA for these entries.
test system: Cyp1a1 mRNA in liver; experiment: Cyp1a1 gene expression in liver (real-time PCR); type: in vivo, female C57BL/6 mice; settings: relative to TCDD; dose metric Adm dose (µg/kg BW)

Below, each entry is followed by its recorded REP Liver Cyp1a1 mRNA result.
Compound	REP Liver Cyp1a1 mRNA
Clc1ccc(-c2cc(Cl)c(Cl)c(Cl)c2Cl)cc1Cl	0.00001
Clc1cc2c(cc1Cl)Oc1c(cc(Cl)c(Cl)c1Cl)O2	0.5
Clc1cc2c(cc1Cl)Oc1cc(Cl)c(Cl)cc1O2 [TCDD, 2,3,7,8-tetrachlorodibenzodioxin, reference compound]	1
Clc1ccc(-c2cc(Cl)c(Cl)c(Cl)c2)cc1Cl	0.001

query: Value lookup for REP Liver Cyp1a1 mRNA; key = Clc1ccc(-c2cc(Cl)c(Cl)cc2Cl)cc1Cl
result: 0.000005

Taken from paper PMC3702004.
